Target system: T1, human PCSK9 (human, UniProt Q8NBP7 31-692, limits assumed)
T1 construct: also called hPCSK9; huPCSK9
T1 sequence (Q8NBP7 31-692 limits assumed): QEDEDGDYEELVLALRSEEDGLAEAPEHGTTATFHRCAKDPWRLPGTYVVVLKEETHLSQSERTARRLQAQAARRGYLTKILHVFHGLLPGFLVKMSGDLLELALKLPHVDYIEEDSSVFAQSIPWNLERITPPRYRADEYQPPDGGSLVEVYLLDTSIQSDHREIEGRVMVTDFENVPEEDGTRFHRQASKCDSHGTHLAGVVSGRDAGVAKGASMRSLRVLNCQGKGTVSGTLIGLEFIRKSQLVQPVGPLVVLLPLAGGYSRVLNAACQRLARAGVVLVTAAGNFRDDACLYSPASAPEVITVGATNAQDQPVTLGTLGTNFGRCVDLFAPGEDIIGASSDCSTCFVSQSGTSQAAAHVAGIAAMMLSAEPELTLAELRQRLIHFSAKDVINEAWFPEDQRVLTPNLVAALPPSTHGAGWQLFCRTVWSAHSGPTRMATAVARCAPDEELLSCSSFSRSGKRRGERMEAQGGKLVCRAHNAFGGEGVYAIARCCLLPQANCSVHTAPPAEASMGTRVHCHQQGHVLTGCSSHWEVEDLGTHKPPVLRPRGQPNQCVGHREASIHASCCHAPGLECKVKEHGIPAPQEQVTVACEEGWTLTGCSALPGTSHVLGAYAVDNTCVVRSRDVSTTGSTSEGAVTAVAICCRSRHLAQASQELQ
Test protocol: SPR Biacore 3000, captured IgG, hPCSK9 injected, pH 7.4
// values below are reported koff
Entry rule: numbers only, all in s⁻¹.

Binder	Recorded measurement
5L1724H23_6L3H3 (antibody, V domains shown, Only CDRs printed; Full-length IgG) VH: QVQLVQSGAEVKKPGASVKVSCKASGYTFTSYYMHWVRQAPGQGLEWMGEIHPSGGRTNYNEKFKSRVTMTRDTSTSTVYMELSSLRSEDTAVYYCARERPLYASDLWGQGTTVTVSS VL: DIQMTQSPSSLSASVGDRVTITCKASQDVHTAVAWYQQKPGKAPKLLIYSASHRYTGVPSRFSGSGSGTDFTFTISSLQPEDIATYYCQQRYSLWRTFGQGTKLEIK	0.000342
5L1721H23_6H3 (antibody, V domains shown, Only CDRs printed; Full-length IgG) VH: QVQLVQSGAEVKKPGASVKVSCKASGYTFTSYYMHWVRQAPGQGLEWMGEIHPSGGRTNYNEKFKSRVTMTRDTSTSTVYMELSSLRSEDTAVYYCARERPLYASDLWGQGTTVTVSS VL: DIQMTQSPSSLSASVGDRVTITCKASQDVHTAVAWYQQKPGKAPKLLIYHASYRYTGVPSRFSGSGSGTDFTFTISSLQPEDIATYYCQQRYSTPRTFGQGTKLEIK	0.000273
6L1721 (antibody, V domains shown, L1L3-based mutant; Tested as full-length IgG) VH: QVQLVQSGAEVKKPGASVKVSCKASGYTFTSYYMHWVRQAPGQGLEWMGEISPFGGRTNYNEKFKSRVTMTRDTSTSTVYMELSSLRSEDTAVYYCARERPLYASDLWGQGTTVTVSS VL: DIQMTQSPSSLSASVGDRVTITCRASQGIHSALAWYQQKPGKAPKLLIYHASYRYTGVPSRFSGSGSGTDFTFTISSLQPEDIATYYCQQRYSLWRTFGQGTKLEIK	7.08e-05

koff recorded for this binder, 6L1721H23 (antibody, V domains shown, L1L3-based mutant; Full-length IgG) VH: QVQLVQSGAEVKKPGASVKVSCKASGYTFTSYYMHWVRQAPGQGLEWMGEIHPFGGRTNYNEKFKSRVTMTRDTSTSTVYMELSSLRSEDTAVYYCARERPLYASDLWGQGTTVTVSS VL: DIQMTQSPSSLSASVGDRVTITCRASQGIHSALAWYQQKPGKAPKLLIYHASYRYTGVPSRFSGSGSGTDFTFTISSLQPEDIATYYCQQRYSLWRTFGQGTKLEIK , is 0.000201

koff recorded for this binder, 5L1721H23 (antibody, V domains shown, Triple histidine mutant of h5A10; Only CDRs printed; Full-length IgG) VH: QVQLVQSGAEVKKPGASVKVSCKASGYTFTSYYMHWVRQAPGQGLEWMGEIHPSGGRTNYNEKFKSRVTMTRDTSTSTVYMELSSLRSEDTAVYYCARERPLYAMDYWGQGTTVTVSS VL: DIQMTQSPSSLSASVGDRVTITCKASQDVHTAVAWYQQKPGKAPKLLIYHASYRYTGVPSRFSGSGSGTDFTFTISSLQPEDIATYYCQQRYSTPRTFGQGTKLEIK , is 0.000399

koff recorded for this binder, 5L1724H23_6L3 (antibody, V domains shown, Only CDRs printed; Full-length IgG) VH: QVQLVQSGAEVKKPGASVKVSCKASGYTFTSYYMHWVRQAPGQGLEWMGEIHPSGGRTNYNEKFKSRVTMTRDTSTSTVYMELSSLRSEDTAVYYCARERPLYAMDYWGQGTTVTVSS VL: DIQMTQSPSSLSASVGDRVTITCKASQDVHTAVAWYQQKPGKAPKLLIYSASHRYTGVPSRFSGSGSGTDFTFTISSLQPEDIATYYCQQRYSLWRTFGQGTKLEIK , is 0.00079
